PROTOCOL DETAILS: NCI Yeast Anticancer Drug Screen. Data for the sgs1 mgt1 strain (AID 161);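 note: 0% = growth of cultures given vehicle only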
DETAILS: S. cerevisiae sgs1 mgt1 strain, at 50.0 µM, stronger effect = higher value
About 79,000 compounds went through this panel and 15% of them were active in at least one assay; those are over-represented in the sample as a whole.
Answer each item with its documented growth inhibition.
Give bare numbers, in %.

COc1ccc(-c2cc(-c3ccc(OC)cc3)cc(-c3ccc(OC)cc3)c2)cc1; -14.9
CC(=O)SC12CCCN1C(=O)C1(SC(C)=O)CCCN1C2=O (centres undefined); 45.2

Provide reported growth inhibition for each item, in the same order as listed.
1. CC(C)(CC1(C)NC(=O)NC1=O)OCc1ccccc1 (centres undefined)
2. COc1ccc(/C=C2\N=C(c3ccc([N+](=O)[O-])cc3)OC2=O)cc1Br
3. O=C1c2ccccc2-c2cccc3ccc(-c4ccccc4)c1c23
4. O=C1C2=C(CCCC2)Nc2cccc3ncn1c23
5. N#CC1=C(N)CCC(C#N)(c2ccccc2)C1 (centres undefined)
6. COc1cc(Nc2nc3ccc(C(F)(F)F)cc3nc2-c2ccccc2)cc(OC)c1OC

1. -14.8
2. 27.5
3. -10.2
4. -56.8
5. 22.4
6. -36

Provide reported growth inhibition for each item, in the same order as listed.
1. CCOC(=O)Cn1c2ccccc2c(=O)c2cc(C)c(C)c(C#N)c21
2. O=[N+]([O-])c1ccc(/C=N\N=C\c2ccco2)cc1

-11.6
-4.35
